Test system: SN12C renal
Test: NCI tumour cell line growth inhibition, 48 h; in the data active = GI50 below about 0.43 µM; inactive = the rest
Tick one outcome: active, inactive

Completed entries (count: 2):
| Molecule | Target under test | Discrete label |
| --- | --- | --- |
| CC[C@@]1(O)C(=O)OCc2c1cc1n(c2=O)Cc2c-1nc1cc(F)c(C)c3c1c2[C@@H](NC(=O)CO)CC3 | SN12C renal | active |
| Cn1c(=O)c(Oc2ccc(F)cc2F)cc2cnc(NCC(C)(C)O)nc21 | SN12C renal | inactive |

Problem: What classification did C[C@]12CC[C@H]3[C@@H](CC[C@]4(O)C[C@@H](O[C@@H]5O[C@H](CO)[C@@H](O[C@@H]6OC[C@@H](O)[C@H](O)[C@H]6O)[C@H](O)[C@H]5O)CC[C@]34C=O)[C@@]1(O)CC[C@@H]2C1=CC(=O)OC1 end up with in this test?
Result: active

Problem: What classification did O=C(N/N=C/c1ccncc1)c1ccc(F)cc1 end up with in this test?
Result: inactive

Problem: What classification did CCOc1ccc2c(c1)C(=O)c1c-2n(CCCN=[N+]=[N-])c(=O)c2cc([N+](=O)[O-])ccc12 end up with in this test?
Result: inactive

Problem: What classification did CCCCCCCCCC[C@H](O)[C@H]1CC[C@@H]([C@@H](O)CC[C@H](O)[C@@H]2CCC(CCCCCCC[C@@H](O)CC3=C[C@H](C)OC3=O)O2)O1 (stereo partly drawn) end up with in this test?
Result: inactive

Problem: What classification did O=C(/C=C/C=C/c1ccc2c(c1)OCO2)N/N=C\c1ccc(O)cc1O end up with in this test?
Result: inactive

Problem: What classification did O=C1OCC2=C1C(c1cccc(Cl)c1)c1cc3c(cc1N2CCO)CCC3 (stereo not drawn) end up with in this test?
Result: active

Problem: What classification did COc1cc(N(CCCl)CCCl)ccc1/C=N\NC(=O)c1cccnc1 end up with in this test?
Result: inactive

Problem: What classification did COc1cc(N2CCC(N)CC2)ccc1Nc1ncc(Cl)c(-c2c[nH]c3ccccc23)n1 end up with in this test?
Result: inactive

Problem: What classification did O=C(Nc1cccc(-n2cc(-c3ccncc3)c(-c3ccc(Cl)c(O)c3)n2)c1)Nc1ccc(Cl)c(Cl)c1 end up with in this test?
Result: inactive

Problem: What classification did Nc1ncnc2c1ccn2-c1cccc(NC(=O)c2ccc(N3CCOCC3)c(C(F)(F)F)c2)c1 end up with in this test?
Result: inactive

Problem: What classification did [CH3][Hg]/[N]=C(/N)NC#N end up with in this test?
Result: inactive

Measured values drawn from PubChem BioAssay (NCI) for this set.
